# target.or.system: tRNA^pyl/pylRS^WT (Methanosarcina mazei)
# Construct: expressed in transfected cells; host or cells: HeLa Kyoto cells, plasmid pCMV tRNA^pyl/pylRS^WT
# measurement.description: UAA dependent amber suppression in HeLa cells (NLS-mCherry-^TAGGFP, automated microscope), RS^WT
# Format: cell-based, M. maize
# test.parameters: 1000 μM UAA, HeLa nuclei, 24 h after transfection
# Procedure: A single expression plasmid for expression of both tRNA^pyl and the pyrrolysine synthetase pylRS was generated by replacing the tRNA and synthetase of mammalian UAA expression plasmid pSWAN (Liu et al., Nat Methods 2007, 4: 239) with a synthetic gene derived from the plasmid pEVOL tRNA^pyl/pylRS^WT or pEVOL tRNA^pyl/pylRS^AF. […] UAA concentration dependent GFP expression in the presence of UAA 1, 13, 16 or 17 and RS^WT or RS^AF was analyzed using the following automated microscope procedure. […]
Recorded IGFP (average intensity of GFP, normalized) values for a group of compounds are listed next.
The answer should be a number; do not append a unit.

N[C@@H](CCCCNC(=O)OCC1CC2C=CC1C2)C(=O)O (stereo partly shown) : 12.8

Supply recorded IGFP (average intensity of GFP, normalized) for N[C@@H](CCCCNC(=O)OC1C#CCCCCC1)C(=O)O (stereo partly shown) here.
57.5

Read the entry N[C@@H](CCCCNC(=O)OC1CC2C=CC1C2)C(=O)O (stereo partly shown) and write its reported IGFP (average intensity of GFP, normalized).
178.3

For the compound N[C@@H](CCCCNC(=O)OC1CC/C=C/CCC1)C(=O)O (stereo partly shown) , give its measured IGFP (average intensity of GFP, normalized) value.
33.2

###

Listed below: IGFP (average intensity of GFP, normalized) values for each entry.
# target.or.system: tRNA^pyl/pylRS^WT (Methanosarcina mazei)
# Construct: expressed in transfected cells; host or cells: HeLa Kyoto cells, plasmid pCMV tRNA^pyl/pylRS^WT
# measurement.description: UAA dependent amber suppression in HeLa cells (NLS-mCherry-^TAGGFP, automated microscope), RS^WT
# Assay type: cell-based, M. maize
# test.parameters: 10 μM UAA, HeLa nuclei, 24 h after transfection
Please give only the number in your answer, with no unit.

# example entries with known answers
N[C@@H](CCCCNC(=O)OC1C#CCCCCC1)C(=O)O (stereo partly shown) : 5.9
N[C@@H](CCCCNC(=O)OCC1CC2C=CC1C2)C(=O)O (stereo partly shown) : 2.6
N[C@@H](CCCCNC(=O)OC1CC2C=CC1C2)C(=O)O (stereo partly shown) : 6.9

Find the measured IGFP (average intensity of GFP, normalized) of N[C@@H](CCCCNC(=O)OC1CC/C=C/CCC1)C(=O)O (stereo partly shown) and report it.
6.9

###

# target.or.system: tRNA^pyl/pylRS^WT (Methanosarcina mazei, UniProt Q8PWY1)
# Construct: expressed in transfected cells; host or cells: HeLa Kyoto cells, plasmid pCMV tRNA^pyl/pylRS^WT
# measurement.description: UAA dependent amber suppression in HeLa cells (NLS-mCherry-^TAGGFP, automated microscope), RS^WT
# Type: cell-based, M. maize
# test.parameters: 250 μM UAA, HeLa nuclei, 24 h after transfection
measure.name: IGFP (average intensity of GFP, normalized)

Guide cases for IGFP (average intensity of GFP, normalized), answers given:
N[C@@H](CCCCNC(=O)OCC1CC2C=CC1C2)C(=O)O (stereo partly shown) [compound 17] : 5.7
N[C@@H](CCCCNC(=O)OC1CC2C=CC1C2)C(=O)O (stereo partly shown) [compound 16] : 171.6
N[C@@H](CCCCNC(=O)OC1C#CCCCCC1)C(=O)O (stereo partly shown) [compound 1] : 59.6

Please indicate recorded IGFP (average intensity of GFP, normalized) of N[C@@H](CCCCNC(=O)OC1CC/C=C/CCC1)C(=O)O (stereo partly shown) [compound 13] measured with tRNA^pyl/pylRS^WT (Methanosarcina mazei, UniProt Q8PWY1).
22.3

###

# target.or.system: tRNA^pyl/pylRS^AF (Methanosarcina mazei, UniProt Q8PWY1, Y306A/Y384F)
# Construct: expressed in transfected cells; host or cells: HeLa Kyoto cells, plasmid pCMV tRNA^pyl/pylRS^AF
# Sequence (Q8PWY1 whole entry Y306A/Y384F): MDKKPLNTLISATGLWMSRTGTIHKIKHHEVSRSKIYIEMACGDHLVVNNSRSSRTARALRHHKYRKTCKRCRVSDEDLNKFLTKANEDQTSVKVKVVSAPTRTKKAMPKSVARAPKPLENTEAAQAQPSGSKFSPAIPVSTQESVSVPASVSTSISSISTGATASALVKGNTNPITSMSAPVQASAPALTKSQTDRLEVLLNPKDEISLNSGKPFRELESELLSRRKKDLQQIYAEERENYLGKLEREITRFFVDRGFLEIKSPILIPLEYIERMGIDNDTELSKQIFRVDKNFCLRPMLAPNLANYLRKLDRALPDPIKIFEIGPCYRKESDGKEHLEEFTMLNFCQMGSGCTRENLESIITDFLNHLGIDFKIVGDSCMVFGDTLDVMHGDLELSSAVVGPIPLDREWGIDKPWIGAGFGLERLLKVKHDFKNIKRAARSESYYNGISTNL
# measurement.description: UAA dependent amber suppression in HeLa cells (NLS-mCherry-^TAGGFP, automated microscope), RS^AF
# Format: cell-based, M. maize
# test.parameters: 1 μM UAA, HeLa nuclei, 24 h after transfection
measure.name: IGFP (average intensity of GFP, normalized)
Just the number, please, no unit after it.

Example entries begin here.
N[C@@H](CCCCNC(=O)OCC1CC2C=CC1C2)C(=O)O (stereo partly shown) : 10.9
N[C@@H](CCCCNC(=O)OC1CC/C=C/CCC1)C(=O)O (stereo partly shown) : 11.1
N[C@@H](CCCCNC(=O)OC1CC2C=CC1C2)C(=O)O (stereo partly shown) : 5.7

Provide only the value of recorded IGFP (average intensity of GFP, normalized) for N[C@@H](CCCCNC(=O)OC1C#CCCCCC1)C(=O)O (stereo partly shown)
23.7

###

# target.or.system: tRNA^pyl/pylRS^WT (Methanosarcina mazei)
# Construct: expressed in transfected cells; host or cells: HeLa Kyoto cells, plasmid pCMV tRNA^pyl/pylRS^WT
# measurement.description: UAA dependent amber suppression in HeLa cells (NLS-mCherry-^TAGGFP, automated microscope), RS^WT
# Type: cell-based, M. maize
# test.parameters: 100 μM UAA, HeLa nuclei, 24 h after transfection
measure.name: IGFP (average intensity of GFP, normalized)

# count of solved cases: 2
N[C@@H](CCCCNC(=O)OCC1CC2C=CC1C2)C(=O)O (stereo partly shown) : 4.3
N[C@@H](CCCCNC(=O)OC1C#CCCCCC1)C(=O)O (stereo partly shown) : 27.6

State IGFP (average intensity of GFP, normalized) (tRNA^pyl/pylRS^WT (Methanosarcina mazei)) of N[C@@H](CCCCNC(=O)OC1CC2C=CC1C2)C(=O)O (stereo partly shown) .
9.4

Provide IGFP (average intensity of GFP, normalized), system tRNA^pyl/pylRS^WT (Methanosarcina mazei), entry N[C@@H](CCCCNC(=O)OC1CC/C=C/CCC1)C(=O)O (stereo partly shown)
15.9

###

# target.or.system: mutant pyrrolysyl tRNA synthetase comprising amino acid substitutions Y306A and Y384F (pylRS^AF) (Methanosarcina mazei, UniProt Q8PWY1, Y306A/Y384F)
# Construct: expressed in transfected cells; host or cells: E. coli Top10, plasmid pEVOL tRNA^pyl/pylRS^AF
# Sequence (Q8PWY1 whole entry Y306A/Y384F): as above
# measurement.description: Expression of GFP^TAG in E. coli in presence of UAA (amber suppression) with tRNA^pyl/pylRS^AF
# Format: cell-based, M. maize
# test.parameters: 1 mM UAA, FIG. 6
measure.name: incorporation by RS^AF (GFP fluorescence, SDS-PAGE)

N[C@@H](CCCCNC(=O)OC1C#CCCCCC1)C(=O)O (stereo partly shown) : efficient incorporation
N[C@@H](CCCCNC(=O)OCC1CC2C=CC1C2)C(=O)O (stereo partly shown) : efficient incorporation
N[C@@H](CCCCNC(=O)OC1CC/C=C/CCC1)C(=O)O (stereo partly shown) : efficient incorporation
N[C@@H](CCCCNC(=O)OC1CC2C=CC1C2)C(=O)O (stereo partly shown) : efficient incorporation

###

Documented IGFP (average intensity of GFP, normalized) across a set of molecules
# target.or.system: tRNA^pyl/pylRS^WT (Methanosarcina mazei, UniProt Q8PWY1)
# Construct: expressed in transfected cells; host or cells: HeLa Kyoto cells, plasmid pCMV tRNA^pyl/pylRS^WT
# measurement.description: UAA dependent amber suppression in HeLa cells (NLS-mCherry-^TAGGFP, automated microscope), RS^WT
# Assay type: cell-based, M. maize
# test.parameters: 1 μM UAA, HeLa nuclei, 24 h after transfection
// no unit string in output, number only

Recall the reported IGFP (average intensity of GFP, normalized) of N[C@@H](CCCCNC(=O)OC1CC2C=CC1C2)C(=O)O (stereo partly shown) [compound 16] on tRNA^pyl/pylRS^WT (Methanosarcina mazei, UniProt Q8PWY1) and write it down.
1.5

Report its IGFP (average intensity of GFP, normalized) with tRNA^pyl/pylRS^WT (Methanosarcina mazei, UniProt Q8PWY1) as the test system: N[C@@H](CCCCNC(=O)OC1CC/C=C/CCC1)C(=O)O (stereo partly shown) [compound 13]
6.3

# assay system tRNA^pyl/pylRS^WT (Methanosarcina mazei, UniProt Q8PWY1): give IGFP (average intensity of GFP, normalized) of N[C@@H](CCCCNC(=O)OC1C#CCCCCC1)C(=O)O (stereo partly shown) [compound 1]
3.3

State IGFP (average intensity of GFP, normalized) (tRNA^pyl/pylRS^WT (Methanosarcina mazei, UniProt Q8PWY1)) of N[C@@H](CCCCNC(=O)OCC1CC2C=CC1C2)C(=O)O (stereo partly shown) [compound 17] .
4.2
